Tested on: Aspergillus fumigatus
assay-comment: In vitro antifungal activity, MIC (Method A)
Format: cell-based
recorded-conditions: Aspergillus fumigatus, 72 h, pH 7, Aspergillus fumigatus CF1004, 1×10^5 cells/ml, 3 days, 27° C.
Counter-ions that a name gives are not always drawn.
observation-type: MIC

compound | observation-type | measured
CCCCCCC/C=C\[C@@H]1OC[C@H](C)[C@H](OCCC)[C@H]1OC(=O)CN [Example 22, trifluoroacetic acid salt] | MIC | 50 µg/mL
CCCCCCCC/C=C/[C@@H]1OC[C@H](C)[C@H](OC)[C@H]1OC(=O)CN.O=C(O)C(F)(F)F [Example 6] | MIC | 12.5 µg/mL
CCCCCCCCC[C@@H]1OC[C@H](C)[C@H](OCCC)[C@H]1OC(=O)CN [Example 23, trifluoroacetic acid salt] | MIC | 50 µg/mL
CCCCCCCCO[C@@H]1CCC(C)(C)[C@H](OC)[C@@H]1Cn1ccnc1 [Example 68] | MIC | 12.2 µg/mL
CCC/C=C/C=C/C=C/[C@@H]1OC[C@H](C)[C@H](OC)[C@H]1OC(=O)CN.O=CO [Example 11] | MIC | 6.25 µg/mL
